Experiment: clinical
Format: in vivo, human
Conditions: human, in vivo, po, 1.1 mg/kg
MEASURED METRIC: Cmax (ng/mL)
Number only, in ng/mL; omit the unit.

For record CN1CC[C@]2(C)c3cc(OC(=O)Nc4ccccc4)ccc3N(C)C12.O=C(O)C(O)C(O)C(=O)O (stereo partly shown) [Posiphen] the listed Cmax is 120

====

Assay: Plasma pharmacokinetics after oral Posiphen in Sprague Dawley rats (LC-MS/MS)
Type: in vivo, rat
Details: both sexes, Sprague Dawley, rat, in vivo, 40 mg/kg
MEASURED METRIC: concentration at 1 h (µg/mL)
Dear colleague, please return just the value in µg/mL, with no unit written.

Briefly, concentration at 1 h measured for CN1CC[C@]2(C)c3cc(OC(=O)Nc4ccccc4)ccc3N(C)C12.O=C(O)C(O)C(O)C(=O)O (stereo partly shown) [Posiphen] : 0.771

====

The reader will find reported AUC(0-t) values listed item by item below.
Experiment: Plasma pharmacokinetics after oral Posiphen in CD-1 mice (LC-MS/MS)
Conditions: both, CD-1, mouse, in vivo, po, 65 mg/kg
Protocol: The animal PKs were taken from multiple GLP toxicology studies, biomarker studies, and efficacy studies. […] Sample size (n) represents the number of animals at each time point of sample collection. […] The dose volume was determined according to animals’ weight collected on the dosing day. In mice, blood samples were collected via the saphenous vein or other suitable blood collection site into a microcentrifuge tube containing the anti-coagulant K2-EDTA on wet ice and processed for plasma. […]
Output spec: scalar in ng·h/mL, unitless text.

Please review the following examples before continuing.
{"COMPOUND": "CN1CC[C@]2(C)c3cc(OC(=O)Nc4ccccc4)ccc3NC12 (stereo partly drawn)", "MEASURED VALUE": 5330}
{"COMPOUND": "CN1c2ccc(OC(=O)Nc3ccccc3)cc2[C@@]2(C)CCNC12 (stereo partly drawn)", "MEASURED VALUE": 1400}

Looking up CN1CC[C@]2(C)c3cc(OC(=O)Nc4ccccc4)ccc3N(C)C12.O=C(O)C(O)C(O)C(=O)O (stereo partly drawn) , I found its AUC(0-t) recorded as 1710
